# activation at 10 µM per record follows
# assay.target: Gal-4-PPAR (human PPAR LBD fused to GAL4 DNA-binding domain) (Homo sapiens (Human))
# Sequence (P37231 238-503): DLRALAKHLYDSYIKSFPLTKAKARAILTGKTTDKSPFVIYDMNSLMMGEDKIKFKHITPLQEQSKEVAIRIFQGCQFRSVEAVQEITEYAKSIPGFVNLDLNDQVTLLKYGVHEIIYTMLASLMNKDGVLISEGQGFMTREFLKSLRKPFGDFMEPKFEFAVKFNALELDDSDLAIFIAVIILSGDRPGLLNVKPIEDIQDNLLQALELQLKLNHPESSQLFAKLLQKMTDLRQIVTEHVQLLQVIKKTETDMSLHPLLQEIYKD
# procedure.summary: GAL4-PPARG LBD / UAS-luciferase transactivation assay in HEK 293T cells
# Type: cell-based
# condition.info: HEK-293T, 18 h; read-out: % transactivation at 10 μM (GAL4)

compound	assay.target	activation at 10 µM, %
Cc1c(C)n(Cc2ccc(-c3ccccc3C(=O)O)cc2)c2ccc(C(=O)N[C@@H](C)c3ccc(Br)cn3)cc12	Gal-4-PPAR (human PPAR LBD fused to GAL4 DNA-binding domain) (Homo sapiens (Human))	25
Cc1c(C)n(Cc2ccc(-c3ccccc3C(=O)O)cc2)c2ccc(C(=O)N[C@H](C)c3ccc(C(F)(F)F)c(F)c3)cc12	Gal-4-PPAR (human PPAR LBD fused to GAL4 DNA-binding domain) (Homo sapiens (Human))	50
Cc1c(C)n(Cc2ccc(-c3ccccc3C(=O)O)cc2)c2ccc(C(=O)N[C@@H](C)c3cccc(C(F)(F)F)c3F)cc12	Gal-4-PPAR (human PPAR LBD fused to GAL4 DNA-binding domain) (Homo sapiens (Human))	15
COc1ccc(F)cc1[C@H](C)NC(=O)c1ccc2c(c1)c(C)c(C)n2Cc1ccc(-c2ccccc2C(=O)O)cc1	Gal-4-PPAR (human PPAR LBD fused to GAL4 DNA-binding domain) (Homo sapiens (Human))	20
Cc1c(C)n(Cc2ccc(-c3ccccc3C(=O)O)cc2)c2ccc(C(=O)N[C@@H](C)c3cc(C(F)(F)F)ccc3Cl)cc12	Gal-4-PPAR (human PPAR LBD fused to GAL4 DNA-binding domain) (Homo sapiens (Human))	20
Cc1c(C)n(Cc2ccc(-c3ccccc3C(=O)O)cc2)c2ccc(C(=O)N[C@@H](C)c3ccc(C(F)(F)F)c(F)c3)cc12	Gal-4-PPAR (human PPAR LBD fused to GAL4 DNA-binding domain) (Homo sapiens (Human))	15
Cc1c(C)n(Cc2ccc(-c3ccccc3C(=O)O)cc2)c2ccc(C(=O)N[C@@H](C)c3cccc(Cl)c3F)cc12	Gal-4-PPAR (human PPAR LBD fused to GAL4 DNA-binding domain) (Homo sapiens (Human))	30
Cc1c(C)n(Cc2ccc(-c3ccccc3C(=O)O)cc2)c2ccc(C(=O)N[C@@H](C)c3ccc(C4CC4)nc3)cc12	Gal-4-PPAR (human PPAR LBD fused to GAL4 DNA-binding domain) (Homo sapiens (Human))	20
CCc1ccc([C@H](C)NC(=O)c2ccc3c(c2)c(C)c(C)n3Cc2ccc(-c3ccccc3C(=O)O)cc2)cc1	Gal-4-PPAR (human PPAR LBD fused to GAL4 DNA-binding domain) (Homo sapiens (Human))	20
Cc1c(C)n(Cc2ccc(-c3ccccc3C(=O)O)cc2)c2ccc(C(=O)N[C@@H](C)c3ccc(Cl)nc3)cc12	Gal-4-PPAR (human PPAR LBD fused to GAL4 DNA-binding domain) (Homo sapiens (Human))	35
Cc1c(C)n(Cc2ccc(-c3ccccc3C(=O)O)cc2)c2ccc(C(=O)N[C@H](C)c3ccncc3)cc12	Gal-4-PPAR (human PPAR LBD fused to GAL4 DNA-binding domain) (Homo sapiens (Human))	20
Cc1c(C)n(Cc2ccc(-c3ccccc3-c3nnn[nH]3)cc2)c2ccc(C(=O)N[C@@H](C)c3cccc(C4CC4)c3)cc12	Gal-4-PPAR (human PPAR LBD fused to GAL4 DNA-binding domain) (Homo sapiens (Human))	20
Cc1c(C)n(Cc2ccc(-c3ccccc3C(=O)O)cc2)c2ccc(C(=O)N[C@@H](C)C3CCCCC3)cc12	Gal-4-PPAR (human PPAR LBD fused to GAL4 DNA-binding domain) (Homo sapiens (Human))	20

Provenance of the data: patent US8957093B2
